Every entry's value here was drawn from patent US10206394B2.

Kindly state Post-emergence Crop Selectivity, percentage phytotoxicity, Wheat +CQC for each of the entries shown.
# System: Winter Wheat variety 'Hereward'
# TEST DESCRIPTION: Glasshouse assay for crop safety, post-emergence, +/- safener cloquintocet-mexyl (CQC), percentage phytotoxicity
# Format: in vivo
# CONDITION CONTEXT: 250 g/ha, with safener cloquintocet-mexyl (CQC) seed treatment 0.5 g/kg seed, evaluated after 13 days, 100=total damage, 0=no damage
A number alone suffices; assume %.

Could you tell me which Post-emergence Crop Selectivity, percentage phytotoxicity, Wheat +CQC is on file for CCCNC(=O)CC1CC(=O)C(c2c(C)cc(C)cc2C)C1=O (centres unmarked) ?
40

# query: Post-emergence Crop Selectivity, percentage phytotoxicity, Wheat +CQC of entry Cc1cc(-c2ccc(F)cn2)cc(C)c1C1C(=O)CC(CC(=O)NC(C)(C)C)C1=O (centres unmarked)
20

Reported Post-emergence Crop Selectivity, percentage phytotoxicity, Wheat +CQC for Cc1cc(-c2ncc(F)cn2)cc(C)c1C1C(=O)CC(CC(=O)NCc2cccc(C(F)(F)F)c2)C1=O (centres unmarked) : what is it?
30

Query (compound): Cc1cc(C)c(C2C(=O)CC(CC(=O)NC3CCCC3)C2=O)c(C)c1 (centres unmarked) ; field requested: Post-emergence Crop Selectivity, percentage phytotoxicity, Wheat +CQC
0

So what's the measured Post-emergence Crop Selectivity, percentage phytotoxicity, Wheat +CQC for this one? Cc1cc(C)c(C2C(=O)CC(CC(=O)NC3CC3)C2=O)c(C)c1 (centres unmarked)
20

Form field: reported Post-emergence Crop Selectivity, percentage phytotoxicity, Wheat +CQC of C#Cc1cc(C)c(C2C(=O)CC(CC(=O)NC(C)(C)C)C2=O)c(C)c1 (centres unmarked)
50

GET /values?readout=Post-emergence Crop Selectivity, percentage phytotoxicity, Wheat +CQC&item= CCNC(=O)CC1CC(=O)C(c2c(C)cc(C)cc2C)C1=O (centres unmarked)
20

Look at this compound and give its reported Post-emergence Crop Selectivity, percentage phytotoxicity, Wheat +CQC. Cc1cc(C)c(C2C(=O)CC(CC(=O)N3CCCCC3)C2=O)c(C)c1 (centres unmarked)
50

I have this compound here, Cc1cc(C)c(C2C(=O)CC(CC(=O)NC(C)C)C2=O)c(C)c1 (centres unmarked) , and I need its recorded Post-emergence Crop Selectivity, percentage phytotoxicity, Wheat +CQC.
20

What value of Post-emergence Crop Selectivity, percentage phytotoxicity, Wheat +CQC has been recorded for this entry: Cc1cc(-c2ccc(Cl)cn2)cc(C)c1C1C(=O)CC(CC(=O)NCc2cccc(C(F)(F)F)c2)C1=O (centres unmarked)
50

Which Post-emergence Crop Selectivity, percentage phytotoxicity, Wheat +CQC reading was recorded for the compound Cc1cc(-c2ncc(F)cc2F)cc(C)c1C1C(=O)CC(CC(=O)NC(C)(C)C)C1=O (centres unmarked) ?
10

// query Post-emergence Crop Selectivity, percentage phytotoxicity, Wheat +CQC value for entry Cc1cc(C)c(C2C(=O)CC(CC(=O)NCC(C)C)C2=O)c(C)c1 (centres unmarked)
10

What does the data say about its Post-emergence Crop Selectivity, percentage phytotoxicity, Wheat +CQC? Entry: CC#Cc1cc(C)c(C2C(=O)CC(CC(=O)NCC(=O)C(C)(C)C)C2=O)c(C)c1 (centres unmarked)
50

Value lookup for Post-emergence Crop Selectivity, percentage phytotoxicity, Wheat +CQC; key = Cc1cc(C)c(C2C(=O)CC(CC(=O)NCc3cccs3)C2=O)c(C)c1 (centres unmarked)
10

Which Post-emergence Crop Selectivity, percentage phytotoxicity, Wheat +CQC is reported for this compound? Cc1cc(C)c(C2C(=O)CC(CC(=O)NCC(C)(C)C)C2=O)c(C)c1 (centres unmarked)
10

I would be grateful if you could share the reported Post-emergence Crop Selectivity, percentage phytotoxicity, Wheat +CQC for CCCN(C)C(=O)CC1CC(=O)C(c2c(C)cc(C)cc2C)C1=O (centres unmarked) .
0

Reported Post-emergence Crop Selectivity, percentage phytotoxicity, Wheat +CQC for CCCCNC(=O)CC1CC(=O)C(c2c(C)cc(C)cc2C)C1=O (centres unmarked) : what is it?
0

###

Field: pest or weed control at 250 g/ha. Provide a value for each of the compounds that follow.
# Test system: Alopecurus myosuroides (ALOMY)
# TEST DESCRIPTION: Glasshouse assay for herbicidal activity (pre- and post-emergence), percentage phytotoxicity
# Type: in vivo
# CONDITION CONTEXT: Alopecurus myosuroides, pre-emergence, 480 h, Rate 250 g/ha; pre-emergence; assessed visually 20 DAA; 100%=total damage, 0%=no damage; read-out: Pre-emergence herbicidal activity (percentage phytotoxicity) ALOMY PRE

Record request: pest or weed control at 250 g/ha value, item Cc1cc(C)c(C2C(=O)CC(CC(=O)NCc3ccoc3)C2=O)c(C)c1 (centres unmarked)
20%

# pest or weed control at 250 g/ha lookup, item Cc1cc(-c2ccc(Cl)nn2)cc(C)c1C1C(=O)CC(CC(=O)NCc2cccs2)C1=O (centres unmarked)
40%

Fill in: pest or weed control at 250 g/ha of CC#Cc1cc(C)c(C2C(=O)CC(CC(=O)NC3CCC3)C2=O)c(C)c1 (centres unmarked) is ___
100%

Which pest or weed control at 250 g/ha value belongs to Cc1cc(C)c(C2C(=O)CC(CC(=O)NCCC3=CCCCC3)C2=O)c(C)c1 (centres unmarked) ?
30%

Please look up its pest or weed control at 250 g/ha: CCCNC(=O)CC1CC(=O)C(c2c(C)cc(C)cc2C)C1=O (centres unmarked)
80%

###

# Test system: Alopecurus myosuroides (ALOMY)
# TEST DESCRIPTION: Glasshouse assay for herbicidal activity (pre- and post-emergence), percentage phytotoxicity
# Assay type: in vivo
# CONDITION CONTEXT: Alopecurus myosuroides, pre-emergence, 480 h, 250 g/ha; pre-emergence; 20 DAA; visual assessment (100%=total damage, 0%=no damage); read-out: Pre-emergence herbicidal activity (percentage phytotoxicity) ALOMY PRE
I'd be grateful if you could share measured pest or weed control at 250 g/ha for these entries.
Enter the number, and then the unit.

Give the measured pest or weed control at 250 g/ha of Cc1cc(-c2ncc(Cl)cc2F)cc(C)c1C1C(=O)CC(CC(=O)N2CCOCC2)C1=O (stereo not shown) .
80%

Recorded pest or weed control at 250 g/ha for Cc1cc(C)c(C2C(=O)CC(CC(=O)NCc3ccccc3Cl)C2=O)c(C)c1 (stereo not shown) , please?
20%

What value of measured pest or weed control at 250 g/ha is listed for CC#Cc1cc(C)c(C2C(=O)CC(CC(=O)NCCCOC)C2=O)c(C)c1 (stereo not shown) ?
100%

Request the reported pest or weed control at 250 g/ha associated with Cc1cc(Br)cc(C)c1C1C(=O)CC(CC(=O)NCC2CC2(Cl)Cl)C1=O (stereo not shown)
90%

Field request: pest or weed control at 250 g/ha | item: Cc1cc(C)c(C2C(=O)CC(CC(=O)N[C@@H]3C[C@@H]3F)C2=O)c(C)c1 (stereo partly shown)
70%

Please look up its pest or weed control at 250 g/ha: Cc1cc(Br)cc(C)c1C1C(=O)CC(CC(=O)NCC2CC2)C1=O (stereo not shown)
80%

# get_value(readout='pest or weed control at 250 g/ha', item= Cc1cc(C)c(C2C(=O)CC(CC(=O)NC(C#N)C3CC3)C2=O)c(C)c1 (stereo not shown) )
10%

Find the recorded pest or weed control at 250 g/ha belonging to Cc1cc(C)c(C2C(=O)CC(CC(=O)NCC3(C)CC3(Cl)Cl)C2=O)c(C)c1 (stereo not shown) and report it.
70%

Return reported pest or weed control at 250 g/ha; argument: Cc1cc(-n2cc(Cl)c(C)n2)cc(C)c1C1C(=O)CC(CC(=O)NC(C)(C)C)C1=O (stereo not shown)
70%

I would be grateful if you could share the reported pest or weed control at 250 g/ha for Cc1cc(C)c(C2C(=O)CC(CC(=O)NCc3ccc(C(F)(F)F)cc3)C2=O)c(C)c1 (stereo not shown) .
80%

Recorded pest or weed control at 250 g/ha for CC(C)=CCNC(=O)CC1CC(=O)C(c2c(C)cc(C)cc2C)C1=O (stereo not shown) , please?
90%

Which pest or weed control at 250 g/ha is listed for C=C(F)CNC(=O)CC1CC(=O)C(c2c(C)cc(C)cc2C)C1=O (stereo not shown) ?
90%

Can you look up the measured pest or weed control at 250 g/ha of Cc1cc(-c2ncc(Cl)cn2)cc(C)c1C1C(=O)C[C@@H](CC(=O)NC(C)(C)C)C1=O (stereo partly shown) for me?
100%

Entry Cc1cc(Br)cc(C)c1C1C(=O)CC(CC(=O)NCc2cccc(F)c2)C1=O (stereo not shown) : reported pest or weed control at 250 g/ha = ?
80%

For the compound C=CC1(NC(=O)CC2CC(=O)C(c3c(C)cc(C)cc3C)C2=O)CC1 (stereo not shown) , what pest or weed control at 250 g/ha is on record?
80%

Entry under review: COc1cccc(CNC(=O)CC2CC(=O)C(c3c(C)cc(C)cc3C)C2=O)c1 (stereo not shown) . Reported pest or weed control at 250 g/ha?
70%

Fill in: pest or weed control at 250 g/ha of C=C(Br)CNC(=O)CC1CC(=O)C(c2c(C)cc(C)cc2C)C1=O (stereo not shown) is ___
60%

Which pest or weed control at 250 g/ha value belongs to Cc1cc(C)c(C2C(=O)CC(CC(=O)NCc3cccc(C)n3)C2=O)c(C)c1 (stereo not shown) ?
80%

Return reported pest or weed control at 250 g/ha; argument: C=C(Cl)CNC(=O)CC1CC(=O)C(c2c(C)cc(C)cc2C)C1=O (stereo not shown)
80%

What does the data say about its pest or weed control at 250 g/ha? Entry: C#CC(C)NC(=O)CC1CC(=O)C(c2c(C)cc(C)cc2C)C1=O (stereo not shown)
80%

What pest or weed control at 250 g/ha value was documented for this compound, CCC(C)NC(=O)CC1CC(=O)C(c2c(C)cc(Br)cc2C)C1=O (stereo not shown) ?
80%

Reported pest or weed control at 250 g/ha, compound Cc1cc(C)c(C2C(=O)CC(CC(=O)NCC3CC3(F)F)C2=O)c(C)c1 (stereo not shown) : ____
90%

What value of measured pest or weed control at 250 g/ha is listed for CCCNC(=O)CC1CC(=O)C(c2c(C)cc(Br)cc2C)C1=O (stereo not shown) ?
70%

Given the compound Cc1cc(C)c(C2C(=O)CC(CC(=O)NCc3ccc(Cl)cc3)C2=O)c(C)c1 (stereo not shown) , what is its reported pest or weed control at 250 g/ha?
50%

// query pest or weed control at 250 g/ha value for entry Cc1cc(C)c(C2C(=O)CC(CC(=O)NC3(C)CCCC3)C2=O)c(C)c1 (stereo not shown)
70%

Report pest or weed control at 250 g/ha for Cc1cc(C)c(C2C(=O)CC(CC(=O)Nc3ccccn3)C2=O)c(C)c1 (stereo not shown) please.
80%

State the recorded pest or weed control at 250 g/ha for this entry: Cc1cc(C)c(C2C(=O)CC(CC(=O)NCC3CC3(Cl)Cl)C2=O)c(C)c1 (stereo not shown)
90%

What value of pest or weed control at 250 g/ha has been recorded for this entry: Cc1cc(C)c(C2C(=O)CC(CC(=O)NC(C)(C)C#N)C2=O)c(C)c1 (stereo not shown)
70%

Quick check: pest or weed control at 250 g/ha of Cc1cc(C)c(C2C(=O)CC(CC(=O)NC3(C(F)(F)F)CC3)C2=O)c(C)c1 (stereo not shown) ?
80%

Would you kindly share the measured pest or weed control at 250 g/ha for Cc1cc(C)c(C2C(=O)CC(CC(=O)NC/C=C/Br)C2=O)c(C)c1 (stereo not shown) ?
80%

Entry C#CC(C)(COC)NC(=O)CC1CC(=O)C(c2c(C)cc(C)cc2C)C1=O (stereo not shown) has what pest or weed control at 250 g/ha?
80%

Which measured pest or weed control at 250 g/ha value corresponds to C=CCC(C)(C)NC(=O)CC1CC(=O)C(c2c(C)cc(C)cc2C)C1=O (stereo not shown) ?
30%

Requested field: pest or weed control at 250 g/ha. Item: Cc1cc(C)c(C2C(=O)CC(CC(=O)NC(C)C3CC3)C2=O)c(C)c1 (stereo not shown)
100%

Data request, read-out pest or weed control at 250 g/ha, for Cc1cc(-c2ncc(F)cc2F)cc(C)c1C1C(=O)CC(CC(=O)NCc2ccc(C(F)(F)F)cc2)C1=O (stereo not shown)
90%
